The values you see were collected from paper PMC5540273.

Please go through the items and note down their %Inh.
Tested on: TGFBR2
experimental-context: concentration: 1 μM, replicates: in singlicate; n = 1;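 also: KINOMEscan kinase panel screen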
Give bare numbers, in %.

# batch: return %Inh for each of the 3 compounds below
1. CS(=O)(=O)CCNCc1ccc(-c2ccc3ncnc(Nc4ccc(OCc5ccccc5)c(Cl)c4)c3c2)o1.Cl
2. CS(=O)(=O)CCNCc1nc(-c2ccc3ncnc(Nc4ccc(OCc5cccc(F)c5)c(Cl)c4)c3c2)cs1.Cl
3. CN1c2ccc(-c3ccc(C(=O)NCCO)cc3)cc2-c2[nH]ncc2S1(=O)=O

Result ::
[9, 0, 0]

# batch: return %Inh for each of the 5 compounds below
1. CCc1nc(-c2cccc(C)c2)c(-c2ccnc(NC(=O)c3ccccc3)c2)s1
2. CCC(CC)(CC)n1cnc2c(N)ncnc21
3. Nc1nc(-c2ccc3c(N)n[nH]c3c2)cc(N2CCC[C@@H](C(=O)Nc3ccccc3)C2)n1.O=C(O)C(F)(F)F.O=C(O)C(F)(F)F
4. Cc1ccc(O)cc1Nc1cc(C(F)(F)F)nc2ccc(-c3ccncc3)cc12
5. C[C@@H]1CCN(C(=O)CO)C[C@@H]1N(C)c1ncnc2[nH]ccc12

Result ::
[0, 0, 0, 0, 4]

###

System: TNIK
experimental-context: concentration: 1 μM, replicates: in singlicate; n = 1
Please go through the items and note down their %Inh.
The reply should read as a number followed by its unit.

Reference set, count: 7
CSc1nn2c(=O)cc(N3CCOCC3)nc2n1Cc1cccc(Cl)c1Cl 3%
Cl.c1ccc(Cn2ncc3cc(Nc4ncnc5ccccc45)ccc32)cc1 0%
O=C(NCCCN1CCCC1=O)c1cnc(NCc2cc(Cl)ccc2Cl)nc1NC1CCNCC1 0%
Cl.Fc1ccccc1COc1ccc(Nc2ncnc3ccc(-c4nnc(C(F)(F)F)o4)cc23)cc1Cl 0%
Nc1nc(-c2ccc3c(N)n[nH]c3c2)cc(N2CCC[C@@H](C(=O)Nc3ccccc3)C2)n1.O=C(O)C(F)(F)F.O=C(O)C(F)(F)F 0%
Nc1nc(-c2cccnc2)c(-c2ccnc3ccccc23)s1 81%
Fc1cccc(COc2ccc(Nc3ncnc4sc(-c5ccc[nH]5)cc34)cc2Cl)c1 0%

Pending molecule:
Query :: Under TNIK: %Inh value of "CNc1nccc(-c2c(-c3ccc(F)cc3)ncn2C2CCN(C)CC2)n1" ?
Result :: 21%

###

Test system: BRK
Construct: gene PTK6
experimental-context: concentration: 1 μM, replicates: in singlicate; n = 1
endpoint: %Inh (%)
Answers are plain numbers, in %.

molecule	%Inh (%)
Cl.c1ccc(Cn2ccc3cc(Nc4ncnc5ccccc45)ccc32)cc1 [GW275568]	0
O=C(Nc1n[nH]c2nc(-c3ccco3)c(Br)cc12)c1ccc(CN2CCCC2)cc1.O=C(O)[C@H](O)[C@@H](O)C(=O)O [SB-742352]	0
CC(C)(C)c1ccc(-n2cnc3c(N)ncnc32)cc1 [SKF-97263]	6
CSc1nn2c(=O)cc(N3CCOCC3)nc2n1Cc1cccc(Cl)c1Cl [GSK2347225]	17
CNc1nccc(-c2c(-c3ccc(F)cc3)ncn2C2CCN(C)CC2)n1 [SB-222903]	0

# batch: return %Inh for each of the 8 molecules below
1. Fc1ccc(Nc2nccc(-c3c(-c4ccc(Cl)cc4)nn4ncccc34)n2)cc1F [GW829058]
2. FC(F)(F)c1cc(Nc2nccc(-c3c(-c4ccc(Cl)cc4)nn4ncccc34)n2)ccc1Cl [GW829351]
3. NC(=O)c1sc(-n2cnc3ccccc32)cc1OCc1ccccc1F [GSK1024306]
4. Cn1ccc2ncnc(Nc3ccc(Oc4cccc(Cl)c4)c(Cl)c3)c21
5. Cc1cccc(-c2nc(Nc3ccc4[nH]nnc4c3)c3ccccc3n2)n1 [GW867587]
6. CCC(CC)(CC)n1cnc2c(N)ncnc21 [SKF-97620]
7. Nc1nc(-c2ccccn2)c(-c2ccnc3ccccc23)s1 [GW548057]
8. CCc1nc(-c2cccc(C)c2)c(-c2ccnc(NC(=O)c3ccccc3)c2)s1

Result ::
1: 6; 2: 0; 3: 14; 4: 17; 5: 0; 6: 0; 7: 1; 8: 0

# batch: return %Inh for each of the 5 molecules below
1. Cl.Fc1ccccc1COc1ccc(Nc2ncnc3ccc(-c4nnc(C(F)(F)F)o4)cc23)cc1Cl [GW424170]
2. CCCc1ccc(S(=O)(=O)NC2CCN(c3ccnc(Nc4ccc(OC)cc4)n3)C2)cc1 (stereo not drawn) [GSK1379737]
3. Fc1cccc(COc2ccc(Nc3ncnc4sc(-c5ccc[nH]5)cc34)cc2Cl)c1 [GW707818]
4. CN1CCC(n2cnc(-c3ccc(F)cc3)c2-c2ccnc(NC3CCNCC3)n2)CC1 [SB-229482]
5. Nc1nccc2scc(-c3ccc4c(c3)CCN4C(=O)Cc3cc(F)ccc3F)c12 [GSK2587663]

Result ::
1. 6
2. 6
3. 0
4. 0
5. 32

###

Test system: EPHA3
experimental-context: concentration: 1 μM, replicates: in singlicate; n = 1
Please go through the items and note down their %Inh.
Numbers only, in %.

molecule	endpoint	units-of-measure	numeric-readout
O=C(Nc1ccccc1F)NC1CCN(c2ccnc(Nc3ccc(F)cc3)n2)C1 (stereo not drawn)	%Inh	%	0

# batch: return %Inh for each of the 3 molecules below
1. O=C(CCO)NCCn1ccc2ncnc(Nc3ccc(Oc4cccc(C(F)(F)F)c4)c(Cl)c3)c21
2. CS(=O)(=O)CCNCc1ccc(-c2ccc3ncnc(Nc4ccc(OCc5ccccc5)c(Cl)c4)c3c2)o1.Cl
3. c1ccc(-c2ccc3c(-c4ccnc(Nc5ccc6c(c5)OCCO6)n4)cnn3n2)cc1

Result ::
0
0
0

# batch: return %Inh for each of the 8 molecules below
1. COc1cc2ncnc(Nc3ccc(OCc4ccccc4Br)c(Cl)c3)c2cc1OC.Cl
2. COc1ccc(NC(=O)Nc2ccc(C)c(-c3ccc(C(=O)Nc4ccncc4)cc3)c2)cc1
3. Oc1ccc2ncnc(Nc3ccc(OCc4ccccc4)cc3)c2c1
4. Cc1cc(N2CCC(NS(=O)(=O)c3ccc(F)cc3)CC2)nc(Nc2cccc(C#N)c2)n1.O=C(O)C(F)(F)F
5. CC(=O)Nc1n[nH]c2ncc(-c3ccccc3)cc12
6. COc1ccc(-c2oc3ncnc(N)c3c2-c2ccc(OC)cc2)cc1
7. CCc1nc(-c2cccc(N(C)S(=O)(=O)c3ccccc3)c2)c(-c2ccnc(Nc3ccc(N4CCN(C(C)=O)CC4)nc3)n2)s1
8. O=C(Nc1ccccc1)Nc1ccc(Oc2ccc3nccn3n2)cc1

Result ::
1. 0
2. 13
3. 0
4. 0
5. 2
6. 0
7. 14
8. 0

###

Test system: YSK4
Construct: gene MAP3K19
experimental-context: concentration: 1 μM, replicates: in singlicate; n = 1
endpoint: %Inh (%)
Answers are plain numbers, in %.

Reference set, count: 3
compound	units-of-measure	%Inh
CCn1c(-c2ccncc2)nc2cnccc21 [SB-735216]	%	74
C[C@H]1CC[C@@H](C(=O)Nc2ccccc2)CN1c1cc(-c2ccc3c(N)n[nH]c3c2)nc(N)n1 [GSK2283293]	%	16
Fc1cccc(COc2ccc(Nc3ncnc4cc[nH]c34)cc2Cl)c1	%	18

Pending compound:
Query :: Would you mind telling me what %Inh value was observed for Cc1cccc(-c2nc(Nc3ccc4[nH]nnc4c3)c3ccccc3n2)n1 [GW867587] ?
Result :: 0

###

System: LIMK2
experimental-context: concentration: 1 μM, replicates: in singlicate; n = 1
endpoint: %Inh (%)
One number for each entry, in %.

Reference set, count: 4
CN1c2ccc(-c3ccc(C(=O)NCCO)cc3)cc2-c2[nH]ncc2S1(=O)=O 7
COc1cc2c(Nc3cccc(NC(=O)c4ccccc4)c3)ncnc2cc1OCCCN1CCOCC1 7
COc1ccc(-c2oc3ncnc(N)c3c2-c2ccc(OC)cc2)cc1 8
Nc1nc(-c2cccnc2)c(-c2ccnc3ccccc23)s1 0

# batch: return %Inh for each of the 2 molecules below
1. COc1cc2ncnc(Nc3ccc(OCc4ccccc4Br)c(Cl)c3)c2cc1OC.Cl
2. COc1ccc(NC(=O)c2ccc(-c3cc(-c4nnc(C)o4)ccc3C)cc2)cc1

Result ::
1: 3; 2: 0

# batch: return %Inh for each of the 3 molecules below
1. CC(=O)Nc1n[nH]c2ncc(-c3ccccc3)cc12
2. CC(C)N1CCC(n2cnc(-c3ccc(F)cc3)c2-c2ccnc(N)n2)CC1
3. CNc1nccc(-c2c(-c3ccc(F)cc3)ncn2CCCN2CCOCC2)n1

Result ::
1: 45; 2: 9; 3: 95.2

###

Tested on: EPHA2
experimental-context: concentration: 1 μM, replicates: in singlicate; n = 1
Assign met whenever %Inh does not fall below 1%; assign not met whenever it does.

Query :: Dear colleague, could you confirm whether FC(F)(F)c1ccc(-c2nn3ncccc3c2-c2ccnc(Nc3cccc(C(F)(F)F)c3)n2)cc1 [GW828205] has %Inh at or above 1%?
Result :: met

Query :: Subsequent entry: "C[C@@H]1CCN(C(=O)CO)C[C@@H]1N(C)c1ncnc2[nH]ccc12"
Result :: not met

Query :: Subsequent entry: Nc1n[nH]c2nnc(-c3ccccc3)cc12 [SB-517389]
Result :: met

Query :: Subsequent entry: Cl.Fc1ccccc1COc1ccc(Nc2ncnc3ccc(-c4nnc(C(F)(F)F)o4)cc23)cc1Cl [GW424170]
Result :: not met

Query :: Subsequent entry: CC(C)(C)c1ccc(-n2cnc3c(N)ncnc32)cc1 [SKF-97263]
Result :: met

Query :: Subsequent entry: "Cn1ccc2ncnc(Oc3ccc(NC(=O)Nc4cccnc4)c(Cl)c3)c21"
Result :: not met

Query :: Subsequent entry: CCC(CC)(CC)n1cnc2c(N)ncnc21 [SKF-97620]
Result :: met
